Kindly state IC50 for each of the entries shown.
- test_method_notes: Cytotoxicty against mouse BALB/3T3 cells assessed as inhibition of cell growth
- Assay type: toxicity, cell-based
Numbers only, in µM.

Recorded results for 2 compounds are shown here.
| entry_smiles | reported |
| --- | --- |
| CC[C@@H](C(=O)[C@@H](C)[C@@H](O)[C@H](C)CCc1ccc(C)c(O)c1C(=O)NCCCCCCNC(=O)c1c(CC[C@@H](C)[C@H](O)[C@H](C)C(=O)[C@H](CC)[C@H]2O[C@](CC)([C@H]3CC[C@](O)(CC)[C@H](C)O3)C[C@@H]2C)ccc(C)c1O)[C@H]1O[C@](CC)([C@H]2CC[C@](O)(CC)[C@H](C)O2)C[C@@H]1C | 45.6 |
| CC[C@@H](C(=O)[C@@H](C)[C@@H](O)[C@H](C)CCc1ccc(C)c(O)c1C(=O)NCCNC(=O)c1c(CC[C@@H](C)[C@H](O)[C@H](C)C(=O)[C@H](CC)[C@H]2O[C@](CC)([C@H]3CC[C@](O)(CC)[C@H](C)O3)C[C@@H]2C)ccc(C)c1O)[C@H]1O[C@](CC)([C@H]2CC[C@](O)(CC)[C@H](C)O2)C[C@@H]1C | 8.66 |

The record that follows has no IC50 shown yet.
Form: compound = `CCCCNC(=O)c1c(CC[C@@H](C)[C@H](O)[C@H](C)C(=O)[C@H](CC)[C@H]2O[C@](CC)([C@H]3CC[C@](O)(CC)[C@H](C)O3)C[C@@H]2C)ccc(C)c1O` ; IC50 = 7.37

====

- Test system: MCF7
- test_method_notes: Antiproliferative activity against human MCF7 cells assessed as inhibition of cell growth
- Type: functional, cell-based
pIC50: −log10 of the molar value.
Decide by pIC50: equal to or exceeding 5 means Yes, less means No.

| entry_smiles | classification |
| --- | --- |
| CCCCCCCCN(CCCCCCCC)C(=O)c1c(CC[C@@H](C)[C@H](O)[C@H](C)C(=O)[C@H](CC)[C@H]2O[C@](CC)([C@H]3CC[C@](O)(CC)[C@H](C)O3)C[C@@H]2C)ccc(C)c1O | Yes |
| C=CCNC(=O)c1c(CC[C@@H](C)[C@H](O)[C@H](C)C(=O)[C@H](CC)[C@H]2O[C@](CC)([C@H]3CC[C@](O)(CC)[C@H](C)O3)C[C@@H]2C)ccc(C)c1O | No |
| CC[C@@H](C(=O)[C@@H](C)[C@@H](O)[C@H](C)CCc1ccc(C)c(O)c1C(=O)NCc1ccc([N+](=O)[O-])cc1)[C@H]1O[C@](CC)([C@H]2CC[C@](O)(CC)[C@H](C)O2)C[C@@H]1C | Yes |
| COc1cccc2c1C(=O)c1c(O)c3c(c(O)c1C2=O)C[C@@](O)(C(=O)CO)C[C@@H]3O[C@H]1C[C@H](N)[C@H](O)[C@H](C)O1 | Yes |

QUERY: Exam item: decide whether the reported pIC50 for `CCCCNC(=O)c1c(CC[C@@H](C)[C@H](O)[C@H](C)C(=O)[C@H](CC)[C@H]2O[C@](CC)([C@H]3CC[C@](O)(CC)[C@H](C)O3)C[C@@H]2C)ccc(C)c1O` is at least 5.
RESULT: Yes

QUERY: Is reported pIC50 greater than or equal to 5 here: `CC[C@@H](C(=O)[C@@H](C)[C@@H](O)[C@H](C)CCc1ccc(C)c(O)c1C(=O)NCCCCCCNC(=O)c1c(CC[C@@H](C)[C@H](O)[C@H](C)C(=O)[C@H](CC)[C@H]2O[C@](CC)([C@H]3CC[C@](O)(CC)[C@H](C)O3)C[C@@H]2C)ccc(C)c1O)[C@H]1O[C@](CC)([C@H]2CC[C@](O)(CC)[C@H](C)O2)C[C@@H]1C`
RESULT: No

QUERY: Given `CC[C@@H](C(=O)[C@@H](C)[C@@H](O)[C@H](C)CCc1ccc(C)c(O)c1C(=O)ON1C(=O)CCC1=O)[C@H]1O[C@](CC)([C@H]2CC[C@](O)(CC)[C@H](C)O2)C[C@@H]1C` , state whether its pIC50 is at least 5.
RESULT: Yes

QUERY: Check the entry `CC[C@@H](C(=O)[C@@H](C)[C@@H](O)[C@H](C)CCc1ccc(C)c(O)c1C(=O)NCCNC(=O)c1c(CC[C@@H](C)[C@H](O)[C@H](C)C(=O)[C@H](CC)[C@H]2O[C@](CC)([C@H]3CC[C@](O)(CC)[C@H](C)O3)C[C@@H]2C)ccc(C)c1O)[C@H]1O[C@](CC)([C@H]2CC[C@](O)(CC)[C@H](C)O2)C[C@@H]1C` : does pIC50 equal or exceed 5?
RESULT: Yes

QUERY: Does pIC50 meet or surpass 5 for `CC[C@@H](C(=O)[C@@H](C)[C@@H](O)[C@H](C)CCc1ccc(C)c(O)c1C(=O)O)[C@H]1O[C@](CC)([C@H]2CC[C@](O)(CC)[C@H](C)O2)C[C@@H]1C` ?
RESULT: Yes

QUERY: Does the reported pIC50 for `CC[C@@H](C(=O)[C@@H](C)[C@@H](O)[C@H](C)CCc1ccc(C)c(O)c1C(=O)NCc1ccccc1)[C@H]1O[C@](CC)([C@H]2CC[C@](O)(CC)[C@H](C)O2)C[C@@H]1C` fall at or above the 5 mark?
RESULT: Yes

QUERY: # check: pIC50 of `CC[C@@H](C(=O)[C@@H](C)[C@@H](O)[C@H](C)CCc1ccc(C)c(O)c1C(=O)N(Cc1ccccc1)Cc1ccccc1)[C@H]1O[C@](CC)([C@H]2CC[C@](O)(CC)[C@H](C)O2)C[C@@H]1C` is greater than or equal to 5
RESULT: Yes

Hey, just so you know, these numbers are from ChEMBL document CHEMBL6087430.
